system: SK-MEL-5; experiment: NCI tumour cell line growth inhibition, 48 h
Active and inactive are the calls of the source. Cut-off read from the data, not from the text of the source: active = GI50 up to about 1.1 µM and inactive = higher.
I would appreciate it if you answered using one of these outcomes: Yes for active, No for inactive

Recorded test outcome, item CCOC(=O)C12OC(CCC1=O)C(C(=O)OC)=C2C(=O)OC (stereo unspecified)
No

Recorded test outcome, item COc1cc2c(cc1OC)CCN=C2
No

Recorded test outcome, item O=C(c1ccccc1)n1c2ccc(Br)cc2c2nc3ccccc3nc21
No

Recorded test outcome, item Nc1ccc(OCCCc2c(-c3ccccc3)[nH]c(N)nc2=O)cc1
No

Recorded test outcome, item CC1(C)CC2(C)OC(=N)C1(C#N)C2(C#N)C#N (stereo unspecified)
No

Recorded test outcome, item C=C1C[C@@H](O)[C@@H](Br)C(C)(C)[C@]12CCC(C)(Cl)C(Br)C2 (stereo partly specified)
No

Recorded test outcome, item CON(C)C(=O)C(C)NC(=O)OC(C)(C)C (stereo unspecified)
No

Recorded test outcome, item COc1ccc([Se]c2ccc(OC)cc2)cc1
No

Recorded test outcome, item O=C1N(c2ccccc2)C(=S)/C(=C/c2ccc(Cl)cc2)N1c1ccc(Cl)cc1
No

Recorded test outcome, item CC(=O)N1C(c2[nH]c3ccccc3c2-c2ccccc2)CCN1c1ccccc1 (stereo unspecified)
No

Recorded test outcome, item COc1cc2c(cc1OC)CN1CCc3ccccc3CC1C2 (stereo unspecified)
No

Recorded test outcome, item COc1ccc(NC(=O)CC(=O)n2nc(-c3ccccc3)c(/N=N/c3ccccc3C)c2-c2ccccc2)cc1
No

Recorded test outcome, item O=c1[nH]nc(-c2ccccc2)c2[nH]c3c(c12)CCCc1ccccc1-3
No

Recorded test outcome, item CN(C)CCCNc1cc(O)c2c(c1O)C(=O)c1ccccc1C2=O
No

Recorded test outcome, item Cc1ccc(S(=O)(=O)N(/N=C(\N)Oc2ccc(Cl)cc2)C(=N)Oc2ccc(Cl)cc2)cc1
No

Recorded test outcome, item O=C(OCN1C(=O)C2C3C=CC(C2C1=O)C1C2C(=O)N(COC(=O)C4CCCN4)C(=O)C2C31)C1CCCN1 (stereo unspecified)
No

Recorded test outcome, item O=C(Nc1cccc2ccccc12)c1cc2ccccc2oc1=O
No

Recorded test outcome, item Nc1nc(Cl)nc2c1ncn2C1CCC(CO)O1 (stereo unspecified)
No

Recorded test outcome, item COc1ccc(C[C@H]2NC[C@H](O)[C@H]2OC(C)=O)cc1
Yes

Recorded test outcome, item COC1=CC(=O)C(O)=C(CC2(C)C(C)CCC3(C)C2CCCC3(C)C)C1=O (stereo unspecified)
No

Recorded test outcome, item NS(=O)(=O)c1ccc(/N=N/c2nc3[nH]cnc(=S)c3[nH]2)cc1
No

----------
system: SK-MEL-28; experiment: NCI tumour cell line growth inhibition, 48 h
Calls of active or inactive are those of the source. Cut-off read from the data, not from the text of the source: active = GI50 up to about 1.1 µM and inactive = higher.
Assignment: determine reported GI50 for the given compounds.

Report GI50 for COC(=O)C1=CSC2(S1)C(C(=O)OC)=CSc1c2ss/c1=N\c1ccccc1 (configuration not stated) please.
2.38 µM (inactive)

Report GI50 for CC1(c2ccccc2Cl)C(C#N)C(=O)NC(=O)C1C#N (configuration not stated) please.
37.8 µM (inactive)

Report GI50 for CO/C=C(/C(=O)OC)c1ccccc1[C@H]1C[C@@H]1c1ccccc1 please.
25.8 µM (inactive)

Report GI50 for [O-][S+](C(c1ccccc1)=P(c1ccccc1)(c1ccccc1)c1ccccc1)c1ccc(Cl)cc1 (configuration not stated) please.
22 µM (inactive)

Report GI50 for COc1ccc(NC(=S)c2ccc(CN3CCCCC3)s2)cc1 please.
17.3 µM (inactive)

Report GI50 for c1cncc(CNCCN2CCNCC2)c1 please.
> 100 µM (inactive)

Report GI50 for O=C(O)C12C3CCC(CC3)C1(C(=O)O)C1CCC2C1 (configuration not stated) please.
> 100 µM (inactive)

Report GI50 for CCCC[C@@H]1CCN2C[C@@H](O)[C@@H](O)[C@@H]2[C@H]1O please.
> 100 µM (inactive)

Report GI50 for OC1CN2Cc3cc4c(cc3[C@]13C=C[C@@H](O)CC23)OCO4 (some centres not stated) please.
48.4 µM (inactive)

Report GI50 for O=C1NC(N2CCOCC2)=N/C1=C\c1ccco1 please.
> 100 µM (inactive)

Report GI50 for Cc1nc2ccccc2n1Cc1nnc(-c2ccccc2)o1 please.
> 100 µM (inactive)

Report GI50 for C#CCN(Cc1ccc2nc(-c3ccccc3)c(N)nc2c1)c1cc(OC)c(OC)c(OC)c1 please.
37.1 µM (inactive)

Report GI50 for NNC(=O)c1cc(Cl)ccc1NC(=O)C12CC3CC(CC(C3)C1)C2 please.
29.9 µM (inactive)

Report GI50 for Nc1ccc(OCCCc2c(-c3ccccc3)[nH]c(N)nc2=O)cc1 please.
27.5 µM (inactive)

Report GI50 for C=C1C[C@@H](O)[C@@H](Br)C(C)(C)[C@]12CCC(C)(Cl)C(Br)C2 (some centres not stated) please.
55.7 µM (inactive)

Report GI50 for CCOC(=O)N/N=C(/OCC)c1ccccc1 please.
> 100 µM (inactive)

Report GI50 for CNCC(=O)Nc1ccc2c(c1)C(=O)c1ccc(NC(=O)CNC)cc1C2=O please.
2.54 µM (inactive)

Report GI50 for COc1ccc(/C=C/C(=O)CCN2CCN(CCC(=O)/C=C/c3ccc(OC)cc3)CC2)cc1 please.
13.6 µM (inactive)

Report GI50 for C[C@@H]1OC2(O)[C@H]3CCCN3S(=O)(=O)CCN2C1=O (some centres not stated) please.
> 100 µM (inactive)

Report GI50 for N#CC(=C1C=CC(=NO)C=C1)c1ccc(Cl)cc1 please.
15.7 µM (inactive)

Report GI50 for COc1cc2c3cc1Oc1c(OC)c(OC)cc4c1[C@@H](Cc1ccc(O)c(c1)Oc1ccc(cc1)C[C@@H]3N(C)CC2)N(C)CC4.c1ccccc1 please.
15.3 µM (inactive)

Report GI50 for O=C(O)CN1CCNCCNCC1 please.
> 100 µM (inactive)

----------
tested on: Malme-3M; test: NCI tumour cell line growth inhibition, 48 h
Active and inactive are the calls of the source. No stated cut-off is given here; in the data, active = GI50 up to about 1.1 µM and inactive = higher.
Endpoint: GI50

Report GI50 for COC(=O)C1C2CC3C(OC(=O)C31)C2I (stereo unspecified) please.
> 100 µM (inactive)

Report GI50 for Cc1cccc(C(C)(C)C)c1NC(=O)C(=O)C(C(=O)/C=C\c1ccccc1)C1OC(=O)c2ccccc21 (stereo unspecified) please.
> 100 µM (inactive)

Report GI50 for Cc1ccc(-c2cc(-c3ccco3)c(C#N)c(=O)n2C2OC(OC(=O)c3ccccc3)C(OC(=O)c3ccccc3)C2OC(=O)c2ccccc2)cc1 (stereo unspecified) please.
> 100 µM (inactive)

Report GI50 for Cn1ccnc1CCc1ccc(Cl)c(Cl)c1 please.
> 100 µM (inactive)

Report GI50 for COc1c(O)cc2c(c1O)C1O[C@H](CO)C(O)[C@H](O)[C@H]1OC2=O (stereo partly specified) please.
> 100 µM (inactive)

Report GI50 for CCOC(=O)C(CS)NC(=O)CCCCCCCC(=O)NC(CS)C(=O)OCC (stereo unspecified) please.
92 µM (inactive)

Report GI50 for Clc1ccc(/C=C/c2nc3ccccc3s2)cc1Cl please.
48.2 µM (inactive)

Report GI50 for C=C1N(C=O)C(C)(C)N(O)C1(C)C please.
> 100 µM (inactive)

Report GI50 for OC1(c2ccc(Cl)cc2)c2ccccc2C2=Nc3ccccc3CN21 (stereo unspecified) please.
30.5 µM (inactive)

Report GI50 for COc1cccc(C2c3cc4c(cc3OC(O)C2C)OCO4)c1OC (stereo unspecified) please.
11 µM (inactive)

Report GI50 for CCOC(=O)N/N=C(/OCC)c1ccccc1 please.
> 100 µM (inactive)

----------
test system: HL-60; assay: NCI tumour cell line growth inhibition, 48 h
The source made the active and inactive calls. Cut-off read from the data, not from the text of the source: active = GI50 up to about 1.1 µM and inactive = higher.
I would appreciate it if you answered using one of these outcomes: TRUE (active), FALSE (inactive)

Recorded test outcome, item CC(=O)/C(=C\c1cccc([N+](=O)[O-])c1)C(=O)Nc1ccccc1C
FALSE

Recorded test outcome, item O=C(O)c1nc2ccccc2nc1NCc1ccc(F)cc1
FALSE

Recorded test outcome, item COc1ccc2cc(C(=O)c3ccccc3C(=O)O)ccc2c1
FALSE

Recorded test outcome, item C=CCOC(=O)N1c2ccc(O)cc2[C@@]23O[C@@]24[C@@H]1C#C/C=C\C#C[C@]3(O)C(OC)(OC)C[C@@H]4C
FALSE

Recorded test outcome, item COc1ccc([Se]c2ccc(OC)cc2)cc1
FALSE

Recorded test outcome, item O=C1CC(CC(=O)C2CCCCC2=O)C(=O)N1 (centres undefined)
FALSE

Recorded test outcome, item C[C@H](CCC(=O)O)[C@H]1CC[C@@]2(C)[C@@H]3C(=O)C[C@H]4C(C)(C)[C@@H](O)CC[C@]4(C)[C@H]3C(=O)C[C@]12C
FALSE

Recorded test outcome, item COc1cc2c(cc1OC)CCN=C2
FALSE

Recorded test outcome, item COC(=O)C1=CSC2(S1)C(C(=O)OC)=CSc1c2ssc1=O (centres undefined)
FALSE

Recorded test outcome, item O=C(COC(=O)c1cccc2c(=O)c3ccccc3[nH]c12)Nc1ccc(S(=O)(=O)Nc2ncccn2)cc1
FALSE

Recorded test outcome, item CC(=O)O[C@H]1C(=O)[C@@]2(C)[C@H]([C@H](OC(=O)c3ccccc3)[C@]3(O)C[C@H](OC(=O)[C@H](O)[C@@H](NC(=O)OC(C)(C)C)c4ccco4)C(C)=C1C3(C)C)[C@]1(OC(C)=O)CO[C@@H]1C[C@@H]2O
TRUE

Recorded test outcome, item O=C1N(c2ccccc2)C(=S)/C(=C/c2ccc(Cl)cc2)N1c1ccc(Cl)cc1
FALSE

Recorded test outcome, item CC(=O)O[C@]12CCCCCC1C1(O)C(O)CCC[C@H]12 (some centres undefined)
FALSE

Recorded test outcome, item CC(C)(C)N1CC1CNC(=O)C(=O)NCC1CN1C(C)(C)C (centres undefined)
TRUE

Recorded test outcome, item CN(C)Cc1cc(C(=O)/C=C/c2ccc(O)cc2)cc(CN(C)C)c1O
FALSE

Recorded test outcome, item CC1(Br)C(=O)NC(=O)N(C2CC(N=[N+]=[N-])C(CO)O2)C1N=[N+]=[N-] (centres undefined)
FALSE

Recorded test outcome, item O=C(/C=C/c1ccccc1)c1cc(CN2CCOCC2)c(O)c(CN2CCOCC2)c1
FALSE

Recorded test outcome, item O=c1[nH]nc(-c2ccccc2)n1/N=C\c1ccccc1
FALSE

Recorded test outcome, item CN1C(c2ccccc2)CC(=NOCc2ccccc2)CC1c1ccccc1 (centres undefined)
FALSE
